Assay comment: Pharmacokinetic evaluation in ICR male mice
Assay type: in vivo
Experimental context: mouse, plasma, IV 2 mg/kg
Test readout: AUC(0-t) (ng·h/mL)

Compound	Uom	Numeric result
CNC(=O)c1cc2c(c(F)c1-c1c(Cl)c(F)cc3c1C[C@@](CN[C@H]1CC[C@H](C(=O)N4CCC(CC5CCN(C(=O)COc6ccc(N7CCC(=O)NC7=O)c(C)c6)CC5)CC4)CC1)(c1ccccc1)O3)[C@@H](O)[C@@H](C)C2 [KG-FP-003]	ng·h/mL	1040

====

Assay comment: Pharmacokinetic evaluation in ICR male mice
Type: in vivo
Experimental context: mouse, plasma, IP 5 mg/kg
Test readout: Tmax (min)

Molecule	Numeric result
CNC(=O)c1cc2c(c(F)c1-c1c(Cl)c(F)cc3c1C[C@@](CN[C@H]1CC[C@H](C(=O)N4CCC(CC5CCN(C(=O)COc6ccc(N7CCC(=O)NC7=O)c(C)c6)CC5)CC4)CC1)(c1ccccc1)O3)[C@@H](O)[C@@H](C)C2 [KG-FP-003]	25.2
